- Tested on: L-363 (Plasma Cell Myeloma)
- measurement_description: combination Emax (second highest fraction inhibited in the dose matrix, 72 h); higher = more inhibition; extreme values may be limits of the assay
As shown below, each of these molecules has a reported combination Emax value.
result_type: combination Emax

molecule	result_type	reported
COc1nnc2ccc(N3CCC(c4ccc(OCCN5CCN(C)C(=O)[C@H]5C)cc4)CC3)nn12 [AZD5153] + C=CCn1c(=O)c2cnc(Nc3ccc(N4CCN(C)CC4)cc3)nc2n1-c1cccc(C(C)(C)O)n1 [AZD1775] (first compound max 1 µM, partner max 1 µM)	combination Emax	0.935
CCc1c2c(nc3ccc(O)cc13)-c1cc3c(c(=O)n1C2)COC(=O)[C@]3(O)CC [SN-38] + O=C(c1cc(Cc2n[nH]c(=O)c3ccccc23)ccc1F)N1CCN(C(=O)C2CC2)CC1 [Olaparib] (first compound max 0.3 µM, 7x7, partner max 10 µM)	combination Emax	0.421
COc1cccc(OCCCN)c1-c1cc(Nc2cnc(C#N)cn2)n[nH]1 [Prexasertib] + CN(C)CCCOc1ccc(-c2ccc3ncc4c(c3c2)n(C2CCOCC2)c(=O)n4C)cn1 [AZD0156] (first compound max 1 µM, 7x7, partner max 1 µM)	combination Emax	0.992
C=CCn1c(=O)c2cnc(Nc3ccc(N4CCN(C)CC4)cc3)nc2n1-c1cccc(C(C)(C)O)n1 [AZD1775] + CCc1c2c(nc3ccc(O)cc13)-c1cc3c(c(=O)n1C2)COC(=O)[C@]3(O)CC [SN-38] (first compound max 1 µM, partner max 0.3 µM)	combination Emax	0.903

* * *

As shown below, each of these molecules has a reported combination Emax value.
- Test system: GRANTA-519 (B-Cell Non-Hodgkin's Lymphoma)
- measurement_description: combination Emax (second highest fraction inhibited in the dose matrix, 72 h); higher = more inhibition; extreme values may be limits of the assay

molecule	combination Emax
COc1cccc(OCCCN)c1-c1cc(Nc2cnc(C#N)cn2)n[nH]1 [Prexasertib] + O=C(c1cc(Cc2n[nH]c(=O)c3ccccc23)ccc1F)N1CCN(C(=O)C2CC2)CC1 [Olaparib] (first compound max 1 µM, 7x7, partner max 10 µM)	0.865
CC1(C)CCC(CN2CCN(c3ccc(C(=O)NS(=O)(=O)c4ccc(NCC5CCOCC5)c([N+](=O)[O-])c4)c(Oc4cnc5[nH]ccc5c4)c3)CC2)=C(c2ccc(Cl)cc2)C1 [Venetoclax] + C=CCn1c(=O)c2cnc(Nc3ccc(N4CCN(C)CC4)cc3)nc2n1-c1cccc(C(C)(C)O)n1 [AZD1775] (first compound max 1 µM, partner max 1 µM)	1
CN(CCO)CC[C@H](CSc1ccccc1)Nc1ccc(S(=O)(=O)NC(=O)c2ccc(N3CCC([C@@H](O)c4ccccc4-c4ccc(Cl)cc4)CC3)cc2)cc1S(=O)(=O)C(F)(F)F [AZD4320] + C=CCn1c(=O)c2cnc(Nc3ccc(N4CCN(C)CC4)cc3)nc2n1-c1cccc(C(C)(C)O)n1 [AZD1775] (first compound max 1 µM, partner max 1 µM)	1
COc1cccc(OCCCN)c1-c1cc(Nc2cnc(C#N)cn2)n[nH]1 [Prexasertib] + CCc1c2c(nc3ccc(O)cc13)-c1cc3c(c(=O)n1C2)COC(=O)[C@]3(O)CC [SN-38] (first compound max 1 µM, 7x7, partner max 0.3 µM)	1
CC(=O)c1c(C)c2cnc(Nc3ccc(N4CCNCC4)cn3)nc2n(C2CCCC2)c1=O [Palbociclib] + Cn1cnc2c(F)c(Nc3ccc(Br)cc3Cl)c(C(=O)NOCCO)cc21 [Selumetinib] (first compound max 10 µM, 7x7, partner max 10 µM)	0.367
